B1: CIB2-V5 (calcium and integrin-binding protein 2, V5 tagged, wild type) [human] / TMC1-EGFP (EGFP tagged human full length TMC1) [human] (parent complex)
chain 1: MGNKQTIFTEEQLDNYQDCTFFNKKDILKLHSRFYELAPNLVPMDYRKSPIVHVPMSLIIQMPELRENPFKERIVAAFSEDGEGNLTFNDFVDMFSVLCESAPRELKANYAFKIYDFNTDNFICKEDLELTLARLTKSELDEEEVVLVCDKVIEEADLDGDGKLGFADFEDMIAKAPDFLSTFHIRI
chain 2: MSPKKVQIKVEEKEDETEESSSEEEEEVEDKLPRRESLRPKRKRTRDVINEDDPEPEPEDEETRKAREKERRRRLKRGAEEEEIDEEELERLKAELDEKRQIIATVKCKPWKMEKKIEVLKEAKKFVSENEGALGKGKGKRWFAFKMMMAKKWAKFLRDFENFKAACVPWENKIKAIESQFGSSVASYFLFLRWMYGVNMVLFILTFSLIMLPEYLWGLPYGSLPRKTVPRAEEASAANFGVLYDFNGLAQYSVLFYGYYDNKRTIGWMNFRLPLSYFLVGIMCIGYSFLVVLKAMTKNIGDDGGGDDNTFNFSWKVFTSWDYLIGNPETADNKFNSITMNFKEAITEEKAAQVEENVHLIRFLRFLANFFVFLTLGGSGYLIFWAVKRSQEFAQQDPDTLGWWEKNEMNMVMSLLGMFCPTLFDLFAELEDYHPLIALKWLLGRIFALLLGNLYVFILALMDEINNKIEEEKLVKANITLWEANMIKAYNASFSENSTGPPFFVHPADVPRGPCWETMVGQEFVRLTVSDVLTTYVTILIGDFLRACFVRFCNYCWCWDLEYGYPSYTEFDISGNVLALIFNQGMIWMGSFFAPSLPGINILRLHTSMYFQCWAVMCCNVPEARVFKASRSNNFYLGMLLLILFLSTMPVLYMIVSLPPSFDCGPFSGKNRMFEVIGETLEHDFPSWMAKILRQLSNPGLVIAVILVMVLAIYYLNATAKGQKAANLDLKKKMKMQALENKMRNKKMAAARAAAAAGRQ

Variants of: B1
EXPERIMENT NOTES: FRET; cells co-expressing EGFP tagged human TMC1 (donor) and V5 tagged human CIB2; parent: 22; read off a plot
Record form. Attribute: response. Fill in for each entry.

{"columns": ["VARIANT SPEC", "TEST RESULT"],
 "data": [
  ["chain 1 R186W", "~19%"],
  ["chain 1 R66W", "~19%"],
  ["chain 1 C99W", "~5%"],
  ["chain 1 E64D", "~6.5%"],
  ["chain 1 F91S", "~3%"]
]}

Please turn your attention to the following entry.
Query response for chain 1 I123T ~18%

# credit: paper PMC5491523
